Assay: amyloid nucleation score (Sup35N fusion, yeast selection) (log enrichment); library NNK3; higher = more nucleation; inactive = no reads after selection;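 note: zero at mode of non-aggregating sequences after 7 days selection at 30°C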
Endpoint name: amyloid nucleation score

Look over these answered cases.
{"Sequence input": "AEVPEFTLYVSFYSWVYFRL", "Endpoint name": "amyloid nucleation score", "Result": "inactive"}
{"Sequence input": "QKRIQFTSECTRKRNFWLFS", "Endpoint name": "amyloid nucleation score", "Result": "inactive"}
{"Sequence input": "NWGRKCLFSSWCLLYVDNGT", "Endpoint name": "amyloid nucleation score", "Result": 0.555}
{"Sequence input": "SYYITLHWIVASGSYSADNT", "Endpoint name": "amyloid nucleation score", "Result": 0.454}
{"Sequence input": "DSGCLAMF", "Endpoint name": "amyloid nucleation score", "Result": "inactive"}
{"Sequence input": "MCNWMNNLADSGLSASSVQV", "Endpoint name": "amyloid nucleation score", "Result": "inactive"}
{"Sequence input": "AFFGCCYGRDLVEHW", "Endpoint name": "amyloid nucleation score", "Result": 1.49}
{"Sequence input": "RLNHKVFRSLCKKFLRWHGS", "Endpoint name": "amyloid nucleation score", "Result": "inactive"}

Now for a further sequence.
Incoming: Sample SESPKMLVHVVSHILRDFSE — what was its amyloid nucleation score?
Outgoing: inactive

---

Assay: amyloid nucleation score (Sup35N fusion, yeast selection) (log enrichment); library NNK2; higher = more nucleation; inactive = no reads after selection
Everything with amyloid nucleation score lower than 0.09 is 0 (no); everything else, including exactly 0.09, is 1 (yes).

Solved cases below.
{"Substance": "IQDWHVES", "Category": "0 (no)"}
{"Substance": "YFSFFVSKVTGGWSCHVESA", "Category": "0 (no)"}

Incoming: Is it the case that VDSYHGYTDRNALSFLCSLV has amyloid nucleation score reaching or exceeding 0.09?
Outgoing: 1 (yes)

Incoming: Evaluate DYVNGGCLKFKNWRWKFSLS : amyloid nucleation score at minimum 0.09?
Outgoing: 0 (no)

Incoming: Threshold query (amyloid nucleation score >= 0.09) on LSLLRFLNCMRYCLCIGLAS
Outgoing: 1 (yes)

Incoming: Form field: amyloid nucleation score at least 0.09? Entry: GMIFFHGNSLGVTDDSHK
Outgoing: 1 (yes)

Incoming: Dear colleague, could you confirm whether LGCEDIHKEYSLHFSIWMQM has amyloid nucleation score at or above 0.09?
Outgoing: 1 (yes)

Incoming: Kindly determine if amyloid nucleation score recorded for ANKSAGVLYNAASDLRVGVR is above or exactly 0.09.
Outgoing: 1 (yes)

Incoming: Quick check: does KIRSLCPRRKVILSASGQQL have amyloid nucleation score greater than or equal to 0.09?
Outgoing: 1 (yes)

Incoming: Is it the case that LTIPEMNQGLQLSLSIHAQM has amyloid nucleation score reaching or exceeding 0.09?
Outgoing: 0 (no)

Incoming: Does FEAFLSMWIFAPECLRAHSV have a reported amyloid nucleation score of at least 0.09?
Outgoing: 0 (no)

Incoming: Entry RLMFLVFSESSKYSALHMWG : is its amyloid nucleation score no less than 0.09?
Outgoing: 1 (yes)

Incoming: Is amyloid nucleation score for FLKGPTEECQLRPSLRTNLQ at or above 0.09?
Outgoing: 0 (no)

Incoming: Does FYITRLVHFNLIYEGLGFLR have a reported amyloid nucleation score of at least 0.09?
Outgoing: 1 (yes)

Incoming: For this substance, is measured amyloid nucleation score 0.09 or higher? ALILAVLPSKDPIRVCWYSG
Outgoing: 0 (no)
